The reported numbers originate from patent EP1247803A2.

The following compounds are shown together with reported Biochem EGFR %Inhibition values.
Biological target: EGFR (Homo sapiens)
Construct: Add 7 ug A431 cell lysate per well (EGFR source); endogenous in cells; host or cells: A431
Sequence (P00533 25-1210): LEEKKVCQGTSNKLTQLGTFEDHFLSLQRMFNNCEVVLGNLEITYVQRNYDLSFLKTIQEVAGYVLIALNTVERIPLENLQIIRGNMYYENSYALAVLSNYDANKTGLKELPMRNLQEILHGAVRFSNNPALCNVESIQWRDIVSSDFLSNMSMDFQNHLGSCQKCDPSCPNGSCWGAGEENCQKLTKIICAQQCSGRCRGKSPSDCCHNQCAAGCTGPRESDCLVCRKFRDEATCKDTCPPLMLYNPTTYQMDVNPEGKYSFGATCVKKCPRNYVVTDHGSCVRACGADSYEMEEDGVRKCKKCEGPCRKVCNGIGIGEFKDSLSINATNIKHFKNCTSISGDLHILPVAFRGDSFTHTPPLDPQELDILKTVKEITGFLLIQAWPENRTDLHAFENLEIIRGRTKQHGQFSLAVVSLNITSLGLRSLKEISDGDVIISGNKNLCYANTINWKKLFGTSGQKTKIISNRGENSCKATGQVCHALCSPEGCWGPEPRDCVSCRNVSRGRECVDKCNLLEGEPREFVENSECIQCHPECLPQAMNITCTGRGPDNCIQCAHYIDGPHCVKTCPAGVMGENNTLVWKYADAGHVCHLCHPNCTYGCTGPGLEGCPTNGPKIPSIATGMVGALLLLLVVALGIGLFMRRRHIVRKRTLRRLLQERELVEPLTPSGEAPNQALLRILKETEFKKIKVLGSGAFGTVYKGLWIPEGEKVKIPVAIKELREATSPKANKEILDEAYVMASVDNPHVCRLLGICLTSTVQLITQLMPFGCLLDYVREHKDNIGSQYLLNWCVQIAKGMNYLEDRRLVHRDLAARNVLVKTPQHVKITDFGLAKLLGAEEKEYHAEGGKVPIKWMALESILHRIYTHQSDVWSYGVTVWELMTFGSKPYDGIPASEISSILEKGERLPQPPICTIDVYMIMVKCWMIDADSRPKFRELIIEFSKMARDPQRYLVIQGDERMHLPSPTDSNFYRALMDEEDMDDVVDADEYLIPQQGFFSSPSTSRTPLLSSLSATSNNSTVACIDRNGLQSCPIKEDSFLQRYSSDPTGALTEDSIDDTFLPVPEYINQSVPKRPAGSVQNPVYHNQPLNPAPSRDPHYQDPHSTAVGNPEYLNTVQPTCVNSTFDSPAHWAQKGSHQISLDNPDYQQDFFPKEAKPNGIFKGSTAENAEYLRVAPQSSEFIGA
Assay: EGFR ELISA assay (in vitro kinase activity, EGFR captured from A431 cell lysate)
Assay type: biochemical
Set-up: concentration or dose not given beside the values
From the text: To provide a consistent method for measuring the in vitro kinase activity of the EGFR in an Enzyme-linked immunosorbent assay (Elisa). Scope. The following protocol describes the procedures used to analyze protein tyrosine kinase activity on the EGFR in an Elisa. The procedure also describes the protocol for the initial screening of drugs for inhibition or activation of protein tyrosine kinase activity. Reagents and Supplies. • 1. […]
Unit % implied. Number only.

Please review the entries below; each comes with its answer.
Memo: COc1ccc(C=C2C(=O)Nc3ccc(S(=O)(=O)Nc4ccc(C(F)(F)F)cc4)cc32)c2ccccc12 , reported Biochem EGFR %Inhibition: 20.1

Looking up O=C1Nc2ccc(I)cc2C1=Cc1cc(O)c(O)c(Br)c1 , I see its Biochem EGFR %Inhibition listed as 5.1

Lookup result for CCc1c(C)[nH]c(C=C2C(=O)Nc3ccc(Br)c(C)c32)c1C ; measured Biochem EGFR %Inhibition: 27.4

GET /value?item= CC(C)(C)c1cc(C=C2C(=O)Nc3c(Br)cc(Br)cc32)cc(Cl)c1O &field=Biochem EGFR %Inhibition returns 23.9

Lab note: CCOC(=O)c1[nH]c(C=C2C(=O)Nc3ccc(I)cc32)c(C(=O)OC)c1C gave Biochem EGFR %Inhibition of 3.5

***
Record COc1ccc(C=C2C(=O)Nc3ccc(Br)c(C)c32)cc1OC . Reported Biochem EGFR %Inhibition: -13.1

Short answer for COc1c(Cl)cc(C=C2C(=O)Nc3ccc(CCCl)cc32)cc1C(C)(C)C : Biochem EGFR %Inhibition was -34.8

In plain terms, O=C1Nc2ccc(S(=O)(=O)Nc3ccc(C(F)(F)F)cc3)cc2C1=Cc1ccc([N+](=O)[O-])o1 has a documented Biochem EGFR %Inhibition of -15.2
